Molecular target: T1, Human Id2: Histidine (human, UniProt Q02363 1-134, limits assumed)
T1 construct: Fusion protein made in E. coli from vector pGW07; also called h-Id2: His; not shown: His tag
T1 sequence (looked up): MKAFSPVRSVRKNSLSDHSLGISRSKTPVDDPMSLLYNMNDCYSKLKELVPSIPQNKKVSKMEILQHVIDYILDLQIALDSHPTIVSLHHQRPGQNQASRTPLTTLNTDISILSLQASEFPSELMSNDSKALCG
Test: ELISA, Ab 0.000 µg/ml (blank)
Reported values of A450 for individual entries

Below, 2 binders whose answers are already recorded.
Param item = rabbit monoclonal anti-mouse/human Id3, clone #BCH-4/#16-1 (antibody, V domains shown, Rabbit IgG from a rabbit hybridoma; also called m/h Id3 MoAb 16-1) VH: QSVEESGGRLVTPGTPLTLTCTASGFSLSSYYIHWVRQAPGKALEWIGYISDGGTTYYASWAKGRFTISKTSSTTVDLKMTSLTTEDTATYFCARQGFNIWGPGTLVTVSL VL: AVLTQTPSPVSAAVGGTVTISCQSSQSVYNNNWLSWFQQKSGQPPKLLIYETSKLESGVPSRFKGSGSGTQFTLTIIDVQCDDAATYYCLGGYWTTSDNNIFGGGTEVVVK ; retrieve measured A450.
0.049 A450

Same read-out for rabbit monoclonal anti-human Id3, clone #BCH-4/#3-3 (antibody, V domains shown, Rabbit IgG from a rabbit hybridoma; also called h Id3 MoAb 3-3) VH: QSVEESGGRLVTPGTPLTLTCTVSGIDLSSYAMSWVRQAPGKGLEWIGVIFPSNNVYYASWAKGRFTISKTSTTVDLKITSPTTEDTATYFCASMGAFDSWGPGTLVTVSS VL: QVLTQTPSPVSAAVGGTVTINCQASQSIYNDNDLAWFQQKPGQPPKLLIYDASTLTSGVPSRFKGSGSGTQFTLTISDLDCDDAATYYCAARYSGNIYGFGGGTEVVVK ?
0.043 A450

Continuing:
Param item = rabbit monoclonal anti-mouse/human Id3, clone #BCH-4/#6-1 (antibody, V domains shown, Rabbit IgG from a rabbit hybridoma; also called m/h Id3 MoAb 6-1) VH: QSVEESGGRLVTPGTPLTLTCTASGFSLSNVYIHWVRQAPGKGLEWIGYISDGDTARYATWAKGRFTISKTSSTTVNLKMTSLTTEDTATYFCARQGFNIWGPGTLVTVSL VL: AVLTQTPSPVSAAVGGTVSISCQSSQSVWNNNWLSWFQQKPGQPPKLLIYETSKLESGVPSRFKGSGSGTQFTLTISDVQCDDAATYYCLGGYWTTSDNNVFGGGTEVVVK ; retrieve measured A450.
0.045 A450
